MIC values, listed per item
biological target: AcmJRL (Ananas comosus, UniProt Q53J09); construct: native, purified from pineapple stem (D-mannose-Agarose, Superdex 75); initiator Met absent; N-terminus SGLVGLG; residues 2-145; not glycosylated; homodimer in solution, tetramer in crystal; design: inhibition of lectin-induced rat erythrocyte hemagglutination, two-fold serial dilution, lowest saccharide concentration visibly decreasing agglutination; conditions: minimum concentration inhibiting hemagglutination of rat erythrocytes; inhibitor
Sequence (Q53J09 2-145): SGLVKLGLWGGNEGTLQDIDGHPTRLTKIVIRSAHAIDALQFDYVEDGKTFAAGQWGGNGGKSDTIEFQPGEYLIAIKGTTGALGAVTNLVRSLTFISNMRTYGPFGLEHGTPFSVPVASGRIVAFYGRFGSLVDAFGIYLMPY
Answer with a number only, understood to be in µM.

COMPOUND: OC[C@H]1O[C@H](OC[C@H]2O[C@H](OC[C@H]3OC(O)[C@@H](O)[C@@H](O[C@H]4O[C@H](CO)[C@@H](O)[C@H](O)[C@@H]4O)[C@@H]3O)[C@@H](O)[C@@H](O[C@H]3O[C@H](CO)[C@@H](O)[C@H](O)[C@@H]3O)[C@@H]2O)[C@@H](O)[C@@H](O)[C@@H]1O (stereo partly drawn)
SYSTEM_UNDER_TEST: AcmJRL (Ananas comosus, UniProt Q53J09)
OBSERVABLE: MIC
QUANTITY_UNIT: µM
TEST_VALUE: 320

In the following, a different compound is considered.
(Q) // lookup MIC | system=AcmJRL (Ananas comosus, UniProt Q53J09) | key= OC[C@H]1OC(O)[C@H](O)[C@@H](O)[C@@H]1O (stereo partly drawn)
(A) 3120

# credit: paper PMC6068142
